Cited source: paper PMC10648541

Test system: RPMI-8226
Test: Antiproliferative assay (Alamar blue, 72 h), RPMI-8226
Assay type: cell-based, human
Conditions: Homo sapiens, RPMI-8226 cells, three independent experiments, SD < 10%, read-out: Antiproliferative effect IC50, RPMI-8226
pIC50: −log10 of the molar value.
Recorded Endpoint: pIC50

Example entries and their recorded answers appear below.
{"Molecule": "O=C(CCCCCCNC(=O)c1cnc(N(c2ccccc2)c2ccccc2)nc1)NO [Compound 1, reference compound]", "Recorded Endpoint": "pIC50", "Endpoint Value": 5.77}
{"Molecule": "O=C(CCCCCCC(=O)N1CCc2c(nc(-c3ccccc3)nc2-c2ccccc2)C1)NO", "Recorded Endpoint": "pIC50", "Endpoint Value": 4.79}

[a] COc1ccc(-c2nc3c(c(-c4ccc(OC)cc4)n2)CCN(C(=O)CCCCCCC(=O)NO)C3)cc1
[b] COc1cccc(-c2nc3c(c(-c4cccc(OC)c4)n2)CCN(C(=O)CCCCCCC(=O)NO)C3)c1
Task: Task for the reader: decide whether a or b has the larger pIC50. Could you answer with the label of the item you picked?
Result: b

* * *

Target: HDAC1 (Homo sapiens)
Sequence (Q13547 whole entry): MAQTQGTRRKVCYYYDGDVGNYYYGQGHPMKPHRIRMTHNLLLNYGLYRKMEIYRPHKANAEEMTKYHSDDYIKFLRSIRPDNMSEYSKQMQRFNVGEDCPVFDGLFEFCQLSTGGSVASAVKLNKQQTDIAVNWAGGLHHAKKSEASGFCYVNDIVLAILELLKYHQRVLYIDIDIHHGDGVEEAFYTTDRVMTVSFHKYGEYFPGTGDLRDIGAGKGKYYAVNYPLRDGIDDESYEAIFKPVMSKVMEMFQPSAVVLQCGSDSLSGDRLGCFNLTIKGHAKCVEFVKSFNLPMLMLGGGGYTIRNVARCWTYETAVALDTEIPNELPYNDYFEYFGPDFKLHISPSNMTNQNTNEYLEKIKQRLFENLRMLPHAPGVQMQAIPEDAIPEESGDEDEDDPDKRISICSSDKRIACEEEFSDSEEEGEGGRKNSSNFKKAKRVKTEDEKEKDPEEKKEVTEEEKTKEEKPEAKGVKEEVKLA
Recorded Endpoint: IC50 (nM)
Express it in nM; write the number only.

Task: What value of IC50 has been reported for the following molecule? `COc1cccc(-c2nc3c(c(-c4cccc(OC)c4)n2)CCN(C(=O)CCCCCCC(=O)NO)C3)c1`
Result: 308

* * *

Target: HDAC3 (Homo sapiens)
Sequence (O15379 whole entry): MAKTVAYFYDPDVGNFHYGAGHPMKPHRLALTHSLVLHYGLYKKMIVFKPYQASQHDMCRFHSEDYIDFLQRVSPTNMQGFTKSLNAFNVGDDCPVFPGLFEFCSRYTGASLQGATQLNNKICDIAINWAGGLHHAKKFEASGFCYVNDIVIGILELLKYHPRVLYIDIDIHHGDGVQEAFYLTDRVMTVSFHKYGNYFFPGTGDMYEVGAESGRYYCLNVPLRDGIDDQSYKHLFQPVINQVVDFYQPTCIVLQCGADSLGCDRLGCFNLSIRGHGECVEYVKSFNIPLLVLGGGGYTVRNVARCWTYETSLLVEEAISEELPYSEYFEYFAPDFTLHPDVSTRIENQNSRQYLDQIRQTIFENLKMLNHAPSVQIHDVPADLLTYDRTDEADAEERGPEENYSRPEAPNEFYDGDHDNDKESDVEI
Sequence (Q9Y618 395-489 partner limits assumed): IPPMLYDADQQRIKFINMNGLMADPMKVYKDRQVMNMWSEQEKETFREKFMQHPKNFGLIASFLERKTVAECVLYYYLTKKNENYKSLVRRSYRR
Recorded Endpoint: IC50 (nM)
Answer in nM, number only, no unit symbol.

Task: Tell me the measured IC50 of `COc1cccc(-c2nc3c(c(-c4cccc(OC)c4)n2)CCN(C(=O)CCCCCCC(=O)NO)C3)c1` , please.
Result: 411
